Measured values drawn from the supplement of paper PMC11208160 for this set.

- METHOD NOTES: recombinant barcode read abundance after kanamycin selection (control-corrected) (log10(CPM+1)); higher = more efficient recombination; sequences stand for … in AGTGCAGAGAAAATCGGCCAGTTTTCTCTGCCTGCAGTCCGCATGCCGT…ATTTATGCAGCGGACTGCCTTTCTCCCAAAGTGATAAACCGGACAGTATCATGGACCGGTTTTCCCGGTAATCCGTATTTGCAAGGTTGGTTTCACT; site = the 11-nt target
RECORDED METRIC: recombinant barcode read abundance (log10)
// return just the number, without any unit appended

Lab note: measured recombinant barcode read abundance (log10) of GGGCGGACGTGGGTTCTAACCTGTTGCGGCG [GGGCGGACTCC_LTGcore_CG_RTGcore_CG] (site GGGCGGACTCC) (LTG core: CG, RTG core: CG) was 0.759

Note to self: recombinant barcode read abundance (log10) recorded for GAGGCCTACTGGGTTCTAACCTGTTGCCAGT [GAGGCCTCTTG_LTGcore_AC_RTGcore_AC] (site GAGGCCTCTTG) (LTG core: AC, RTG core: AC) was 0.0631

Per the records, this sequence ( GCGCGACCTTGGGTTCTAACCTGTTGCTTGA [GCGCGACCTAA_LTGcore_CT_RTGcore_TC] (site GCGCGACCTAA) (LTG core: CT, RTG core: TC) ) has recombinant barcode read abundance (log10) equal to 0.0329

For reference, reported recombinant barcode read abundance (log10) for GAGCCCACTTGGGTTCTAACCTGTTGCCTTG [GAGCCCACTAG_LTGcore_CT_RTGcore_CA] (site GAGCCCACTAG) (LTG core: CT, RTG core: CA) stands at 0.835

---

- METHOD NOTES: recombinant barcode read abundance after kanamycin selection (control-corrected) (log10(CPM+1)); higher = more efficient recombination; sequences stand for … in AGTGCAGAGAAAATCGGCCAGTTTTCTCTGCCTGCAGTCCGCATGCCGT…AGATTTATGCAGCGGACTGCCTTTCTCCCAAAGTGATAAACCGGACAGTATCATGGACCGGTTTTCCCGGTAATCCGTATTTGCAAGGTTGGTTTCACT; site = the 11-nt target
RECORDED METRIC: recombinant barcode read abundance (log10)
Respond numerically, and do not add a unit to the figure.

The sequence listed as GCTCGGGCTTGGGTTCTAACCTGTTGCGG (site GCTCGGGCTCC) shows recombinant barcode read abundance (log10) equal to 2.6

The sequence AAAGTCCCTTGGGTTCTAACCTGTTGCCT (site AAAGTCCCTAG) showed recombinant barcode read abundance (log10) equal to 1.03

The sequence identified as TCGATCACTTGGGTTCTAACCTGTTGCCT (site TCGATCACTAG) registered its recombinant barcode read abundance (log10) at 0.738

// ACCGCGACTTGGGTTCTAACCTGTTGCCT (site ACCGAGACTAG) : recombinant barcode read abundance (log10) value = 0.0792

Given item TCCGAGACTTGGGTTCTAACCTGTTGCCA (site TCCGAGACTAG) , the value recorded as its recombinant barcode read abundance (log10) is 0.598

Short answer for TCACTCTCTTGGGTTCTAACCTGTTGCCT (site TGACTCTCTAG) : recombinant barcode read abundance (log10) was 0.0273

response.value for ATCCACCCTTGGGTTCTAACCTGTTGCGG (site ATCCACCCTCC) (field: recombinant barcode read abundance (log10)) = 3.07

recombinant barcode read abundance (log10) reading for GCATATACTTGGGTTCTAACCTGTTGCGT (site AGTCCCGCTTG) : 0

Value of measured recombinant barcode read abundance (log10) for the entry GATACTGCTTGGGTTCTAACCTGTTGCCT (site GAAACTGCTAG) : 0.0212

Entry GACTTGTCTTGGGTTCTAACCTGTTGCCT (site GACTTGGCTAG) , recombinant barcode read abundance (log10) reported as 0.0443

Recorded recombinant barcode read abundance (log10) (sequence AGATTGCCTTGGGTTCTAACCTGTTGCCT (site TGATTTCCTAG) ): 0

Value of measured recombinant barcode read abundance (log10) for the entry ACCCAGCCTTGGGTTCTAACCTGTTGCCT (site ACCCAGCCTAG) : 1.44

Form: sequence = TCTTAGACTTGGGTTCTAACCTGTTGCGG (site ACTTAGACTCC) ; recombinant barcode read abundance (log10) = 0.172

The sequence identified as TGAAGGTCTTGGGTTCTAACCTGTTGCCT (site TGAAGGTCTAG) registered its recombinant barcode read abundance (log10) at 0.485

The recorded recombinant barcode read abundance (log10) for entry CGCTCCTCTTGGGTTCTAACCTGTTGCAT (site CGCTCCTCTAT) equals 0

Measured recombinant barcode read abundance (log10) of GCTGAGGCTTGGGTTCTAACCTGTTGCTG (site GCTGAGGCTCA) : 1.05

So for AACTAAACTTGGGTTCTAACCTGTTGCCT (site AACTTAACTAG) , the logged recombinant barcode read abundance (log10) turned out to be 0.0783

According to the records, this sequence TGAGGCACTTGGGTTCTAACCTGTTGCCT (site TGAGGCACTAG) displays recombinant barcode read abundance (log10) of 0.474

get_value(item= TGTGAGTCTTGGGTTCTAACCTGTTGCGT (site TGTGAGTCTAC) , readout=recombinant barcode read abundance (log10)) returns 2.55

Given item TAGTGTGCTTGGGTTCTAACCTGTTGCTT (site TAGTGTGCTAC) , the value recorded as its recombinant barcode read abundance (log10) is 0.117

In plain terms, CCTGGGTCTTGGGTTCTAACCTGTTGCTT (site CCTGGGTCTAA) has a documented recombinant barcode read abundance (log10) of 1.08

Record summary for AGGCGCCCTTGGGTTCTAACCTGTTGCAT (site AGGCGCCCTTT) : reported recombinant barcode read abundance (log10) = 0.244

// sample CGAGGGACTTGGGTTCTAACCTGTTGCCT (site CGAGGGCCTAG) , its recombinant barcode read abundance (log10) was 0.0632

The reported recombinant barcode read abundance (log10) of the sequence GTTTCAACTTGGGTTCTAACCTGTTGCGT (site GTTTCAACTAC) was 0.729

Entry CTCCATGCTTGGGTTCTAACCTGTTGCCT (site CTCCATCCTAG) ; recombinant barcode read abundance (log10) = 0.312

The sequence identified as AGCTATGCTTGGGTTCTAACCTGTTGCCT (site GAAATACCTCC) registered its recombinant barcode read abundance (log10) at 0.138

response.value for GGGGCGTCTTGGGTTCTAACCTGTTGCTG (site TCCATAACTAG) (field: recombinant barcode read abundance (log10)) = 0.175

recombinant barcode read abundance (log10) recorded for this sequence, TCTAGACCTTGGGTTCTAACCTGTTGCCT (site TCTAGACCTAG) , is 0.0778

Briefly, recombinant barcode read abundance (log10) measured for CAAATTACTTGGGTTCTAACCTGTTGCCT (site CAAATTACTAG) : 0.0574

Entry under test: AGTCCACCTTGGGTTCTAACCTGTTGCCT (site AGTCCACCTAG) . Its recombinant barcode read abundance (log10) was 1.53

Sure, the documented recombinant barcode read abundance (log10) for ACTCACTCTTGGGTTCTAACCTGTTGCCT (site ACTCACTCTAG) is 2.04

Lookup result for CGATGGACTTGGGTTCTAACCTGTTGCCG (site CGATGGACTCG) ; measured recombinant barcode read abundance (log10): 0.956

# recombinant barcode read abundance (log10) of CGATGTCCTTGGGTTCTAACCTGTTGCCT (site CGATGTGCTAG) = 0.039

Item: ATGCTACCTTGGGTTCTAACCTGTTGCGG (site CACGGGGCTAG) | recombinant barcode read abundance (log10): 0.0226

Entry under test: TCCCCGACTTGGGTTCTAACCTGTTGCCG (site TCGCCTACTCG) . Its recombinant barcode read abundance (log10) was 0.03

---

- METHOD NOTES: recombinant UMI read abundance after kanamycin selection (control-corrected) (log10(CPM+1)); higher = more efficient recombination; extreme values may be limits of the assay; sequences stand for … in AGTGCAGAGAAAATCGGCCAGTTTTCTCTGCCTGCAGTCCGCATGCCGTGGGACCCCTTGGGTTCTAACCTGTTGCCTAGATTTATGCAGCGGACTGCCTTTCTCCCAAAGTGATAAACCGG…AGGTTGGTTTCACT; site = the 11-nt donor
I'd be grateful if you could share measured recombinant UMI read abundance (log10) for these entries.

Entry GCTCCAACATGGACCGGTTTTCCCGGTAATCCGTATTTGTA (site GCTCCAACTTA) ; recombinant UMI read abundance (log10) = 0.877

Measured recombinant UMI read abundance (log10) of CAGTTAGCATGGACCGGTTTTCCCGGTAATCCGTATTTGTG (site CAGTTAGCTCA) : 2.09

Recorded result, GCTAAAACATGGACCGGTTTTCCCGGTAATCCGTATTTGCT (site GCTAAAACTAG) , recombinant UMI read abundance (log10): 1.01

Per the record, AGAGGGTCATGGACCGGTTTTCCCGGTAATCCGTATTTGGT (site AGAGGGTCTAC) has recombinant UMI read abundance (log10) of 2.54

The sequence CGGCCTCCATGGACCGGTTTTCCCGGTAATCCGTATTTGTT (site CGGCCTCCTAA) showed recombinant UMI read abundance (log10) equal to 0.0159

get_value(item= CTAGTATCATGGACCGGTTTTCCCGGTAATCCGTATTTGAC (site CTACTAGCTGT) , readout=recombinant UMI read abundance (log10)) returns 0

Measured recombinant UMI read abundance (log10), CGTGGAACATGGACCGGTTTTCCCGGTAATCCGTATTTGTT (site CGTAGAACTAA) : 1.15

Record CAGAACCCATGGACCGGTTTTCCCGGTAATCCGTATTTGCC (site CAGAACCCTGG) . Reported recombinant UMI read abundance (log10): 0

# sequence TACACCGCATGGACCGGTTTTCCCGGTAATCCGTATTTGCG (site TTCACCGCTCG) ; its recombinant UMI read abundance (log10) = 0.00838

The sequence listed as GAGGAGGCATGGACCGGTTTTCCCGGTAATCCGTATTTGTG (site GAGGAGGCTCA) has a reported recombinant UMI read abundance (log10) of 0.576

Reported recombinant UMI read abundance (log10) of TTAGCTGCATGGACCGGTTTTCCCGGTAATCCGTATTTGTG (site TTAGTTGCTCA) : 0.00547

Item: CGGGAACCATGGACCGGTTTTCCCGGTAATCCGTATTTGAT (site CGCGAACCTAT) | recombinant UMI read abundance (log10): 0

Item: ACCAACTCATGGACCGGTTTTCCCGGTAATCCGTATTTGCC (site ACCAACTCTGG) | recombinant UMI read abundance (log10): 1.81

recombinant UMI read abundance (log10) reading for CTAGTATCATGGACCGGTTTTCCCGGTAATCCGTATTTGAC (site CTAATCTCTGT) : 0

Sample CGGGTGTCATGGACCGGTTTTCCCGGTAATCCGTATTTGCC (site CGGGCGTCTGG) ; recombinant UMI read abundance (log10) observed: 1.74

The recorded recombinant UMI read abundance (log10) for AAGCACGCATGGACCGGTTTTCCCGGTAATCCGTATTTGGT (site AAGCACGCTGC) is 1.24

Note to self: recombinant UMI read abundance (log10) recorded for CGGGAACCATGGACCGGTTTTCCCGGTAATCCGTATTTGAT (site CGGGCACCTAT) was 0.021

The sequence identified as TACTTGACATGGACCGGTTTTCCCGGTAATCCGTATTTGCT (site TACATGACTAG) registered its recombinant UMI read abundance (log10) at 0.0307

Entry GGTAGGTCATGGACCGGTTTTCCCGGTAATCCGTATTTGTT (site GGTAGGTCTAA) ; recombinant UMI read abundance (log10) = 0.00338

Input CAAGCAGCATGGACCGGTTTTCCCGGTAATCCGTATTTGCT (site CAAGCAGCTAT) . Output recombinant UMI read abundance (log10): 2.19

Looking up TGTTCCACATGGACCGGTTTTCCCGGTAATCCGTATTTGTA (site TGTTCCTCTTA) , I found its recombinant UMI read abundance (log10) recorded as 0.0149

Short answer for ACACATACATGGACCGGTTTTCCCGGTAATCCGTATTTGAC (site ACACATTCTGT) : recombinant UMI read abundance (log10) was 0.554

Record summary for ATCCAAGCATGGACCGGTTTTCCCGGTAATCCGTATTTGAC (site ATCCAAGCTGT) : reported recombinant UMI read abundance (log10) = 1.73

Reported recombinant UMI read abundance (log10) ( CATTCCACATGGACCGGTTTTCCCGGTAATCCGTATTTGCA (site CATTCCACTTG) ) = 1.95

Entry ACTGTATCATGGACCGGTTTTCCCGGTAATCCGTATTTGCA (site ACGGTATCTTG) , recombinant UMI read abundance (log10) reported as 1.96
